Ref: the supplement of paper PMC10307832

system: EKVX; assay: relative viability (nuclei count vs DMSO), 5 days (fraction); higher = more cells survive; settings: first compound 0.4 µM
Exercise: for every item that follows, state its recorded relative viability.
Give bare numbers.

compound	relative viability
COc1cc(N2CCC(C(N)=O)CC2)ccc1Nc1nc(N)c(Cl)c(Nc2ccccc2S(=O)(=O)C(C)C)n1 [HG-5-88-01] + CS(=O)(=O)N1CCN(Cc2cc3nc(-c4cccc5[nH]ncc45)nc(N4CCOCC4)c3s2)CC1 [Pictilisib] (partner 1 µM)	0.372
C[C@@H]1CN(CC(=O)Nc2ccc3c(c2)Cc2cccc(-c4cc(=O)cc(N5CCOCC5)o4)c2S3)C[C@H](C)O1 + Cc1nc(NC(=O)N2CCC[C@H]2C(N)=O)sc1-c1ccnc(C(C)(C)C(F)(F)F)c1 [Alpelisib] (partner 2 µM)	0.818
Clc1ccc(Nc2nnc(Cc3ccncc3)c3ccccc23)cc1 [Vatalanib] + O=C(CCCCCCC(=O)Nc1ccccc1)NO [Vorinostat] (partner 1 µM)	0.831

Okay, next one:
Provide EKVX relative viability reading for COc1cc(N2CCC(C(N)=O)CC2)ccc1Nc1nc(N)c(Cl)c(Nc2ccccc2S(=O)(=O)C(C)C)n1 [HG-5-88-01] + CCNC(=O)c1noc(-c2cc(C(C)C)c(O)cc2O)c1-c1ccc(CN2CCOCC2)cc1 [Luminespib] (partner 0.01 µM) . 0.752
